Tested on: MOLT-4 leukemia
Assay: NCI-60 one-dose screen, 48 h
Conditions: 10 µM unless noted
The panel holds about 83,000 compounds, 20% with a hit somewhere; the sample as a whole holds those more often. Calls of active or inactive are those of the source. Rule for the calls: active = growth percent below 10; inactive = the rest.
Hi there, use one of these labels in your reply, thanks! class 1 = active, class 0 = inactive

Which result was noted for this compound in the test: O=C(/C=C/c1ccccc1)c1ccc2ccccc2c1
class 0

Which result was noted for this compound in the test: COc1cc2oc(-c3cccc(C(=O)Nc4ccc(C)cc4)c3)cc(=O)c2c(OC)c1OC
class 0

Which result was noted for this compound in the test: CCCCCOC(=O)c1ccc(NC(=O)CNCC(C)C)cc1
class 0

Which result was noted for this compound in the test: CC(C)c1ccc(NC(=O)Cc2ccc(Nc3ncnc4cc(-c5cnn(CCN(C)C)c5)ccc34)cc2)cc1
class 1

Which result was noted for this compound in the test: CN1CCN(C(=O)[C@]23CCC(C)(C)C[C@@H]2C2=CC[C@@H]4[C@@]5(C)Cc6c([nH]c7ccccc67)C(C)(C)[C@@H]5CC[C@@]4(C)[C@]2(C)CC3)CC1
class 0

* * *

Tested on: A498 renal
Assay: NCI-60 one-dose screen, 48 h
Details: 10 µM unless noted
About 83,000 compounds went through this panel and 20% of them were active in at least one assay; those are over-represented in the sample as a whole. The source made the active and inactive calls. The calls were made as follows: active = growth percent below 10; inactive = the rest.
Hi there, use one of these labels in your reply, thanks! yes (1) = active, no (0) = inactive

Worked examples follow.
>  <compound>
CN(C)CCCCNc1ccc(NCCCCN(C)C)c2c1C(=O)c1c(O)ccc(O)c1C2=O

>  <study-system>
A498 renal

>  <classification>
no (0)

$$$$
>  <compound>
C=C(C)[C@@H]1CC[C@]2(C(=O)NCC(=O)O)CC[C@]3(C)[C@H](CC[C@@H]4[C@@]5(C)Cc6c([nH]c7ccccc67)C(C)(C)[C@@H]5CC[C@]43C)[C@@H]12

>  <study-system>
A498 renal

>  <classification>
no (0)

$$$$
>  <compound>
C=C1C(=O)O[C@H]2[C@H]1CC/C(COC(=O)/C=C\C(=O)NCc1ccc(Cn3c(=O)sn(-c4ccc(C#N)cc4)c3=O)cc1)=C\CC[C@@]1(C)O[C@@H]21

>  <study-system>
A498 renal

>  <classification>
yes (1)

$$$$
>  <compound>
Cn1ccc(Cc2cnc(N)s2)n1

>  <study-system>
A498 renal

>  <classification>
no (0)

$$$$
>  <compound>
CCNCCNc1cc(-c2ccc(C#N)cc2)c(C#N)c2nc3ccccc3n12

>  <study-system>
A498 renal

>  <classification>
no (0)

$$$$
>  <compound>
N[C@H]1CCC[C@@H]1NCCCCN1C(=O)c2cccc3cccc(c23)C1=O

>  <study-system>
A498 renal

>  <classification>
no (0)

$$$$

Now consider the entry below.
Which result was noted for this compound in the test: C=C(C)[C@@H]1CC[C@]2(CNCCO)CC[C@]3(C)[C@H](CC[C@@H]4[C@@]5(C)CCC(N)[C@@](C)(CO)[C@@H]5CC[C@]43C)[C@@H]12 (some centres undefined)
no (0)

* * *

Test system: OVCAR-4 ovarian
Assay: NCI-60 one-dose screen, 48 h
Conditions: 10 µM unless noted
Description: Growth inhibition of the OVCAR-4 human tumor cell line is measured as a screen for anti-cancer activity. Cells are grown in 96 well plates and exposed to the test compound for 48 hours. Compounds are tested at a single concentration, which is 10^-5 M for most compounds. The reported endpoint is percent growth (GI% or GIPRCNT), where numbers from 0 - 100% represent growth inhibition, and numbers from -100% - 0 represent cell death. For example, a value of 40 represents 60% growth inhibition. […]
Compounds without any hit were thinned out: in the full panel of roughly 83,000, 20% have a hit. The source made the active and inactive calls. Rule for the calls: active = growth percent below 10; inactive = the rest.
Hi there, use one of these labels in your reply, thanks! active, inactive

Worked examples follow.
>  <compound>
CC(C)c1ccc(C(=O)OC(=O)c2ccc(C(C)C)cc2)cc1

>  <classification>
inactive

$$$$
>  <compound>
Cl.[Pt].[c-]1ccccc1-c1ccccn1.c1ccc(P(c2ccccc2)C([PH+](c2ccccc2)c2ccccc2)[PH+](c2ccccc2)c2ccccc2)cc1

>  <classification>
inactive

$$$$

Which result was noted for this compound in the test: CCCCCCCCCCCCCCCCCC1=NCCN1C(=O)OCCO
inactive

Which result was noted for this compound in the test: CC(=O)Nc1nccs1
inactive

Which result was noted for this compound in the test: Cc1ccc(/C=C(\C#N)n2nnc3cc(Cl)c(Cl)cc32)cc1
inactive

Which result was noted for this compound in the test: CCOc1cc(N)ccc1C(=O)NCCCN(CC)CC
inactive

Which result was noted for this compound in the test: O=C(NCOC(O)C(Cl)(Cl)Cl)NCOC(O)C(Cl)(Cl)Cl (stereo unspecified)
inactive

Which result was noted for this compound in the test: CC(C)n1nc(C#Cc2cccc(O)c2)c2c(N)ncnc21
active

Which result was noted for this compound in the test: CC(C)CCC[C@@H](C)[C@H]1CCC2C3=CCn4c(=O)ccc(=O)n4C3CC[C@@]21C (stereo partly specified)
active

Which result was noted for this compound in the test: CC(=O)c1cc2c(o1)C(=O)c1ccccc1C2=O
active

Which result was noted for this compound in the test: C#C[C@]1(O)CC[C@H]2[C@@H]3CC=C4c5sc(N=C(N)N)nc5CC[C@]4(C)[C@H]3CC[C@@]21C
inactive

Which result was noted for this compound in the test: CCCCS(=O)(=O)Oc1ccc(-c2nc(C)c(C(=O)OCC)s2)cc1C=O
inactive

Which result was noted for this compound in the test: C[C@@H]1CC[C@@H]2[C@@H]1[C@H](OC(=O)/C=C/c1ccccc1)[C@]1(CCCOCCOCCOCCOC(=O)CCCC[C@@H]3SC[C@@H]4NC(=O)N[C@@H]43)C[C@@H](OC(=O)CO)[C@@]2(C)O1
inactive

Which result was noted for this compound in the test: O=C1Nc2ccccc2/C1=N/N=C/c1c[nH]c2ccccc12
inactive

Which result was noted for this compound in the test: Cc1[nH]c(-c2nc3ccccc3[nH]2)c(C)c1C(=O)N1CCc2sccc2C1
inactive

Which result was noted for this compound in the test: Cc1nc(Nc2ccc(NC(=S)Nc3ccccc3)cc2)nc2nc(SCc3ccccc3)[nH]c(=O)c12
inactive

Which result was noted for this compound in the test: COc1ccc(C2CC(c3cnccn3)=NN2)cc1OC (stereo unspecified)
inactive

Which result was noted for this compound in the test: C=CCOc1cccc(/C=C2\SC(=Nc3ccc(O)cc3)NC2=O)c1
inactive

Which result was noted for this compound in the test: N#Cc1c(N)n2c(nc1=Nc1ccc([N+](=O)[O-])cc1)sc1cc(Cl)ccc12
inactive

Which result was noted for this compound in the test: NC(N)=N/N=C(/c1ccccc1)c1ccc(N)cc1
inactive

Which result was noted for this compound in the test: C[C@@H]1CC[C@@H]2[C@@H]1[C@H](OC(=O)/C=C/c1ccccc1)[C@]1(C3CCCCC3)C[C@@H](NC(=O)CO)[C@@]2(C)O1
inactive
